Listing of entries alongside the reported IC50.
Test system: subclones of RKO colon adenocarcinoma cells (RKOp27 or RKOp21) arrested by Ponasterone A
test: Alamar Blue cell viability assay, cell cycle specific mode of action: cells arrested by ectopic p27Kip1 induced by Ponasterone A versus proliferating cells
Type: cell-based
condition parameters: Homo sapiens, RKO p27 induced (arrested) cells, 10 μM Ponasterone A, 72 hours, value = class bound given in Table A, read-out: −logIC50 RKO p27 induced (arrested) (converted)

Answered cases to consult:
> print(dat)
                                   molecule  test.value
1  CCNC(=O)OC1CCc2c(sc(NC(=O)/C=C/c3cccnc3)c2C#N)C1 (centres unmarked) [Example 3]    ≥ 100 µM
2  N#Cc1c(NC(=O)/C=C/c2cccnc2)sc2c1CCC(OC(=O)N1CCCC1)C2 (centres unmarked) [Example 62]    ≥ 100 µM
3  N#Cc1c(NC(=O)/C=C/c2cccnc2)sc2c1CCC(OC(=O)NCc1cccnc1)C2 (centres unmarked) [Example 35]    ≥ 100 µM
4  CCOc1ccccc1CCC(=O)Nc1sc2c(c1C#N)CCC(COC(=O)N1CCCC1)C2 (centres unmarked) [Example 201]    ≥ 100 µM
5  COc1cccc(CCC(=O)Nc2sc3c(c2C#N)CCC(OC(=O)Nc2cccnc2)C3)c1 (centres unmarked) [Example 264]   ≥ 50.1 µM

Prompt: Read the entry CCOc1ccccc1CCC(=O)Nc1sc2c(c1C#N)CCC(OC(=O)NCc1cnoc1C)C2 (centres unmarked) [Example 204] and write its reported IC50.
Response: ≥ 100 µM

Prompt: Read the entry CCOc1ccccc1CCC(=O)Nc1sc2c(c1C#N)CCC(COC(=O)NCc1ncc[nH]1)C2 (centres unmarked) [Example 179] and write its reported IC50.
Response: ≥ 10 µM
